The reader will find reported Dry weight values listed item by item below.
# Test system: Agelas conifera
# protocol_text: Distribution in Carribean Agelas conifera was determined and expressed as % dry weight
# Assay type: functional
measured_endpoint: Dry weight (%)

- molecule: "NC1=N/C(=C\\CCNC(=O)c2cc(Br)c(Br)[nH]2)C(=O)N1"
  measured_endpoint: "Dry weight"
  reading: 0.8
- molecule: "Nc1nc([C@H]2[C@H](CNC(=O)c3cc(Br)c[nH]3)[C@@H](CNC(=O)c3cc(Br)c[nH]3)[C@@H]2c2c[nH]c(N)n2)c[nH]1"
  measured_endpoint: "Dry weight"
  reading: 8.8
- molecule: "C[N+]1=CNC[C@]1(C)CC(NC(=O)c1cc(Br)c[nH]1)C(=O)[O-] (some centres not stated)"
  measured_endpoint: "Dry weight"
  reading: 0
- molecule: "Nc1ncc(/C=C/CNC(=O)c2cc(Br)c(Br)[nH]2)[nH]1"
  measured_endpoint: "Dry weight"
  reading: 2.1
- molecule: "NC1=N/C(=C\\CCNC(=O)c2cc(Br)c[nH]2)C(=O)N1"
  measured_endpoint: "Dry weight"
  reading: 3.5
- molecule: "NC1=N/C(=C\\C(O)CNC(=O)c2cc(Br)c[nH]2)C(=O)N1 (configuration not stated)"
  measured_endpoint: "Dry weight"
  reading: 3.5
- molecule: "NC1=N/C(=C\\C(O)CNC(=O)c2cc(Br)c(Br)[nH]2)C(=O)N1 (configuration not stated)"
  measured_endpoint: "Dry weight"
  reading: 0.8
